Quick reference: log10(IC50) of the listed items.
Target: PKC β II (Homo sapiens)
Construct: purchased CALBIOCHEM
Sequence (P05771 other isoform, or with tags, fused parts or gaps): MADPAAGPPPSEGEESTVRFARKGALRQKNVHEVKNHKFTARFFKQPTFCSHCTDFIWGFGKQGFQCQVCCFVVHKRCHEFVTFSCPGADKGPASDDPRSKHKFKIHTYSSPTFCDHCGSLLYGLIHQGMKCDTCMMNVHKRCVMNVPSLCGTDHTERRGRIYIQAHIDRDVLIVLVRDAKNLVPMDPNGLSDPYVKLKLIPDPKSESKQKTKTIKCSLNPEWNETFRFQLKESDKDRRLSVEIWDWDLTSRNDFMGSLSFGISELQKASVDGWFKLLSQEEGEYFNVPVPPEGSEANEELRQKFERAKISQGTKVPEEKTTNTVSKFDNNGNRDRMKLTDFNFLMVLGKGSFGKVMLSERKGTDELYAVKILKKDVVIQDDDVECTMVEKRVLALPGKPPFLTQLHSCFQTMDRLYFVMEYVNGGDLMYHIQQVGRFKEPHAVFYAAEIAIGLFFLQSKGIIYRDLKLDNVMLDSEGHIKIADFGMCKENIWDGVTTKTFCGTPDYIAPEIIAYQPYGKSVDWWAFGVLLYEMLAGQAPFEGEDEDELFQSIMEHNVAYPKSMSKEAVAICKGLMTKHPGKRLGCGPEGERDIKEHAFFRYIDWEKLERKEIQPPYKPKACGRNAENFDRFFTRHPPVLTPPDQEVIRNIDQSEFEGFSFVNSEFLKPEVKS
Assay: PKC enzyme assay (BIOTRAK Protein kinase C enzyme assay system, 32P-ATP phosphorylation of peptide […])
Assay type: biochemical
Details: Protein Kinase C, Human Recombinant; test substance 1 nM-10 µM; 37°C, 15 minutes; read-out: Inhibition of PKC activity IC50 PKC β II
measurement name: log10(IC50) (log10 of the value in nM)

{"molecule": "Cc1nccn1CCn1cc(C2=C(Nc3ccccc3)C(=O)NC2=O)c2ccccc21", "log10(IC50)": 2.39}
{"molecule": "CN1CCN(CCCn2cc(C3=C(Nc4ccccc4)C(=O)NC3=O)c3ccccc32)CC1", "log10(IC50)": 1.36}
{"molecule": "O=C1NC(=O)C(c2cn(CC3CCN(CC(O)CO)CC3)c3ccccc23)=C1Nc1ccccc1 (centres unmarked)", "log10(IC50)": 1.46}
{"molecule": "CCN(CC)C[C@H]1Cc2c(C3=C(Nc4ccccc4)C(=O)NC3=O)c3ccccc3n2C1", "log10(IC50)": 1.51}
{"molecule": "CN(C)CCN(C)CCCn1cc(C2=C(Nc3ccccc3)C(=O)NC2=O)c2ccccc21", "log10(IC50)": 1.60}
